Reference source for all entries: patent US7491825B2

Assign Ki to each entry below.
# target: human B2 receptor (Homo sapiens, UniProt P30411)
# Construct: human B2 receptor expressed in human fibroblasts W138; endogenous in cells; host or cells: human fibroblasts W138 (WI-38)
# Sequence (P30411 whole entry): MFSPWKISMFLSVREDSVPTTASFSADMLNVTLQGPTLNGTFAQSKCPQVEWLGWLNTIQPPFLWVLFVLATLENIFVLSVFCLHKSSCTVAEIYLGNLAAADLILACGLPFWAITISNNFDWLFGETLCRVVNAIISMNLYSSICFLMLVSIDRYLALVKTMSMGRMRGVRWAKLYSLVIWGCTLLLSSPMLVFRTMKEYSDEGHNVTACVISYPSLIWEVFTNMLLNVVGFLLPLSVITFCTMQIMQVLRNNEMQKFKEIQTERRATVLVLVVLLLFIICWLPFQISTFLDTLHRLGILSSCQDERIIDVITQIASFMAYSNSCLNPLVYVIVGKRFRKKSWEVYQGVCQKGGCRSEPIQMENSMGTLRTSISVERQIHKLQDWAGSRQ
# assay explanation: binding to the human B2 receptor expressed in human fibroblasts W138
# condition parameters: human B2 receptor expressed in human fibroblasts W138; read-out: pKi (converted)
Structures can show the parent of a compound that is named as a salt.

These solved cases illustrate the format of a correct answer.
{"molecule": "Cc1ccc2cccc(OCc3c(Cl)ccc(S(=O)(=O)NC(C)(C)C(=O)N4CCN(C(=O)CNC5CCNCC5)CC4)c3Cl)c2n1 [Example 26, tris trifluoroacetate]", "target": "human B2 receptor (Homo sapiens, UniProt P30411)", "Ki": "0.501 nM"}
{"molecule": "Cc1cc(C)c2cccc(OCc3c(Cl)ccc(S(=O)(=O)NC4(C(=O)N5CCN(C(=O)C[C@@H](O)C[N+](C)(C)C)CC5)CCCC4)c3Cl)c2n1 [Example 84]", "target": "human B2 receptor (Homo sapiens, UniProt P30411)", "Ki": "0.631 nM"}
{"molecule": "CC[C@@](C)(NS(=O)(=O)c1ccc(Cl)c(COc2cccc3c(C)cc(C)nc23)c1Cl)C(=O)N1CCN(C(=O)C[C@@H](N)CCCN(C)C)CC1 [Example 74]", "target": "human B2 receptor (Homo sapiens, UniProt P30411)", "Ki": "0.794 nM"}
{"molecule": "Cc1ccc2cccc(OCc3c(Cl)ccc(S(=O)(=O)NC(C)(C)C(=O)N4CCN(C(=O)C[C@@H](N)CCCCN(C)C)CC4)c3Cl)c2n1 [Example 30, tris trifluoroacetate]", "target": "human B2 receptor (Homo sapiens, UniProt P30411)", "Ki": "0.794 nM"}
{"molecule": "Cc1cc(C)c2cccc(OCc3c(Cl)ccc(S(=O)(=O)NC4(C(=O)N5CCN(C(=N)NCCNCCCN)CC5)CCCC4)c3Cl)c2n1 [Example 96, bis trifluoroacetate]", "target": "human B2 receptor (Homo sapiens, UniProt P30411)", "Ki": "0.794 nM"}
{"molecule": "Cc1cc(C)c2cccc(OCc3c(Cl)ccc(S(=O)(=O)NC4(C(=O)N5CCN(C(=O)C[N+](C)(C)C)CC5)CCCC4)c3Cl)c2n1 [Example 82]", "target": "human B2 receptor (Homo sapiens, UniProt P30411)", "Ki": "0.631 nM"}
{"molecule": "Cc1ccc2cccc(OCc3c(Cl)ccc(S(=O)(=O)NC(C)(C)C(=O)N4CCN(C(=O)C[C@@H](N)CCCN(C)C)CC4)c3Cl)c2n1 [Example 29, tris trifluoroacetate]", "target": "human B2 receptor (Homo sapiens, UniProt P30411)", "Ki": "0.631 nM"}
{"molecule": "Cc1cc(C)c2cccc(OCc3c(Cl)ccc(S(=O)(=O)NC4(C(=O)N5CCN(C(=O)[C@@H](N)CC6CCNCC6)CC5)CCCC4)c3Cl)c2n1 [Example 81, tris trifluoroacetate]", "target": "human B2 receptor (Homo sapiens, UniProt P30411)", "Ki": "0.631 nM"}
{"molecule": "Cc1cc(C)c2cccc(OCc3c(Cl)ccc(S(=O)(=O)NC4(C(=O)N5CCN(CCN6CCNCC6)CC5)CCCC4)c3Cl)c2n1 [Example 100, trifluoroacetate]", "target": "human B2 receptor (Homo sapiens, UniProt P30411)", "Ki": "0.398 nM"}
{"molecule": "Cc1cc(C)c2cccc(OCc3c(Cl)ccc(S(=O)(=O)NC(C)(C)C(=O)N4CCN(C(=O)C[C@@H](N)CCCN(C)C)CC4)c3Cl)c2n1 [Example 46]", "target": "human B2 receptor (Homo sapiens, UniProt P30411)", "Ki": "0.501 nM"}

Read the next record carefully.
Query block: For the molecule Cc1cc(C)c2cccc(OCc3c(Cl)ccc(S(=O)(=O)NC4(C(=O)N5CCN(C(=O)CCCCCNC(=N)N)CC5)CCCC4)c3Cl)c2n1 [Example 67, bis trifluoroacetate] , what Ki is on record?
Result block: 0.794 nM
